Origin of values: ChEMBL document CHEMBL1157887

Listed here: items and their measured MIC.
# Test system: Staphylococcus epidermidis
# test-protocol: Antibacterial activity against Staphylococcus epidermidis ATCC 12228 by broth microdilution technique
# Type: functional
Answer with a number only, understood to be in µg/mL.

CC(O)c1cn(C2CCN(c3nc4c(cc3F)c(=O)c(C(=O)O)cn4C3CC3)CC2)nn1 (stereo not given)    2
O=C(O)c1cn(C2CC2)c2nc(N3CCC(n4cc(-c5ccccc5)nn4)CC3)c(F)cc2c1=O    0.5

Fill in the blank: the reported MIC of CCC(O)c1cn(C2CCN(c3nc4c(cc3F)c(=O)c(C(=O)O)cn4C3CC3)CC2)nn1 (stereo not given) is ____.
2

Look up MIC for this compound: O=Cc1cn(C2CCN(c3nc4c(cc3F)c(=O)c(C(=O)O)cn4C3CC3)CC2)nn1
0.031

Fill in the blank: the reported MIC of CO/N=C/c1cn(C2CCN(c3nc4c(cc3F)c(=O)c(C(=O)O)cn4C3CC3)CC2)nn1 is ____.
0.5

* * *

# Test system: Enterococcus faecalis
# test-protocol: Antibacterial activity against Enterococcus faecalis ATCC 29212 by broth microdilution technique
# Assay type: functional
quantity: MIC (µg/mL)
Write the value in µg/mL as a bare number.

Solved cases (2 shown):
CC(O)c1cn(C2CCN(c3nc4c(cc3F)c(=O)c(C(=O)O)cn4C3CC3)CC2)nn1 (stereo unspecified)    8
CCC(O)c1cn(C2CCN(c3nc4c(cc3F)c(=O)c(C(=O)O)cn4C3CC3)CC2)nn1 (stereo unspecified)    8

Item under review: O=C(O)c1cn(C2CC2)c2nc(N3CCC(n4cc(CO)nn4)CC3)c(F)cc2c1=O . Reported MIC?
2

# lookup: MIC of O=C(O)c1cn(C2CC2)c2nc(N3CCC(n4cc(/C=N/OCc5ccccc5)nn4)CC3)c(F)cc2c1=O
4

I would be grateful if you could share the reported MIC for O=C(O)c1cn(C2CC2)c2cc(N3CCNCC3)c(F)cc2c1=O .
1

# input compound: CO/N=C/c1cn(C2CCN(c3nc4c(cc3F)c(=O)c(C(=O)O)cn4C3CC3)CC2)nn1 ; wanted: its MIC
4

GET /values?readout=MIC&item= NC(=O)c1cn(C2CCN(c3nc4c(cc3F)c(=O)c(C(=O)O)cn4C3CC3)CC2)nn1
4

Which MIC value belongs to O=Cc1cn(C2CCN(c3nc4c(cc3F)c(=O)c(C(=O)O)cn4C3CC3)CC2)nn1 ?
2

Field request: MIC | item: C#CCO/N=C/c1cn(C2CCN(c3nc4c(cc3F)c(=O)c(C(=O)O)cn4C3CC3)CC2)nn1
8

What does the data say about its MIC? Entry: O=C(O)c1cn(C2CC2)c2nc(N3CCC(n4cc(/C=N/O)nn4)CC3)c(F)cc2c1=O
4

Look at this compound and give its reported MIC. CCO/N=C/c1cn(C2CCN(c3nc4c(cc3F)c(=O)c(C(=O)O)cn4C3CC3)CC2)nn1
4

Data request, read-out MIC, for CN[C@H](CC(C)C)C(=O)N[C@H]1C(=O)N[C@@H](CC(N)=O)C(=O)N[C@H]2C(=O)N[C@H]3C(=O)N[C@H](C(=O)N[C@H](C(=O)O)c4cc(O)cc(O)c4-c4cc3ccc4O)[C@H](O)c3ccc(c(Cl)c3)Oc3cc2cc(c3O[C@@H]2O[C@H](CO)[C@@H](O)[C@H](O)[C@H]2O[C@H]2C[C@](C)(N)[C@H](O)[C@H](C)O2)Oc2ccc(cc2Cl)[C@H]1O
0.5

Name the reported MIC value associated with the compound COC(=O)c1cn(C2CCN(c3nc4c(cc3F)c(=O)c(C(=O)O)cn4C3CC3)CC2)nn1
16

Look at this compound and give its reported MIC. O=C(O)c1cn(C2CC2)c2nc(N3CCC(n4cc(-c5ccccc5)nn4)CC3)c(F)cc2c1=O
1

Name the reported MIC value associated with the compound C=CCO/N=C/c1cn(C2CCN(c3nc4c(cc3F)c(=O)c(C(=O)O)cn4C3CC3)CC2)nn1
8
